assay: Cytotoxicity against Biomphalaria alexandrina incubated for 24 hrs
# strict inequality: LC50 < 2 µM yields true, everything else yields false

A record lists `CN(C)CCNc1c2c3ccccc3nc-2n(C)c2ccc(Cl)cc12` . Is its LC50 below 2 µM?
true

A record lists `Cn1c2nc3ccccc3c-2c(NCCN2CCOCC2)c2cc(Cl)ccc21` . Is its LC50 below 2 µM?
true

A record lists `Cn1c2nc3ccccc3c-2c(N2CCC(N3CCCCC3)CC2)c2cc(Cl)ccc21` . Is its LC50 below 2 µM?
false

A record lists `CN1CCN(c2c3cc(Cl)ccc3nc3[nH]c4ccccc4c23)CC1` . Is its LC50 below 2 µM?
true

A record lists `Cn1c2nc3ccccc3c-2c(NCCN2CCCC2)c2cc(Cl)ccc21` . Is its LC50 below 2 µM?
true

A record lists `Cn1c2nc3ccccc3c-2c(N2CCN(CCO)CC2)c2cc(Cl)ccc21` . Is its LC50 below 2 µM?
false

A record lists CCN1CCCC1CNc1c2c3ccccc3nc-2n(C)c2ccc(Cl)cc12 (configuration not stated) . Is its LC50 below 2 µM?
false
